Molecular target: Glutamate receptor ionotropic, NMDA 2D (Homo sapiens, UniProt O15399+Q05586)
Sequence (O15399 whole entry, one chain of several): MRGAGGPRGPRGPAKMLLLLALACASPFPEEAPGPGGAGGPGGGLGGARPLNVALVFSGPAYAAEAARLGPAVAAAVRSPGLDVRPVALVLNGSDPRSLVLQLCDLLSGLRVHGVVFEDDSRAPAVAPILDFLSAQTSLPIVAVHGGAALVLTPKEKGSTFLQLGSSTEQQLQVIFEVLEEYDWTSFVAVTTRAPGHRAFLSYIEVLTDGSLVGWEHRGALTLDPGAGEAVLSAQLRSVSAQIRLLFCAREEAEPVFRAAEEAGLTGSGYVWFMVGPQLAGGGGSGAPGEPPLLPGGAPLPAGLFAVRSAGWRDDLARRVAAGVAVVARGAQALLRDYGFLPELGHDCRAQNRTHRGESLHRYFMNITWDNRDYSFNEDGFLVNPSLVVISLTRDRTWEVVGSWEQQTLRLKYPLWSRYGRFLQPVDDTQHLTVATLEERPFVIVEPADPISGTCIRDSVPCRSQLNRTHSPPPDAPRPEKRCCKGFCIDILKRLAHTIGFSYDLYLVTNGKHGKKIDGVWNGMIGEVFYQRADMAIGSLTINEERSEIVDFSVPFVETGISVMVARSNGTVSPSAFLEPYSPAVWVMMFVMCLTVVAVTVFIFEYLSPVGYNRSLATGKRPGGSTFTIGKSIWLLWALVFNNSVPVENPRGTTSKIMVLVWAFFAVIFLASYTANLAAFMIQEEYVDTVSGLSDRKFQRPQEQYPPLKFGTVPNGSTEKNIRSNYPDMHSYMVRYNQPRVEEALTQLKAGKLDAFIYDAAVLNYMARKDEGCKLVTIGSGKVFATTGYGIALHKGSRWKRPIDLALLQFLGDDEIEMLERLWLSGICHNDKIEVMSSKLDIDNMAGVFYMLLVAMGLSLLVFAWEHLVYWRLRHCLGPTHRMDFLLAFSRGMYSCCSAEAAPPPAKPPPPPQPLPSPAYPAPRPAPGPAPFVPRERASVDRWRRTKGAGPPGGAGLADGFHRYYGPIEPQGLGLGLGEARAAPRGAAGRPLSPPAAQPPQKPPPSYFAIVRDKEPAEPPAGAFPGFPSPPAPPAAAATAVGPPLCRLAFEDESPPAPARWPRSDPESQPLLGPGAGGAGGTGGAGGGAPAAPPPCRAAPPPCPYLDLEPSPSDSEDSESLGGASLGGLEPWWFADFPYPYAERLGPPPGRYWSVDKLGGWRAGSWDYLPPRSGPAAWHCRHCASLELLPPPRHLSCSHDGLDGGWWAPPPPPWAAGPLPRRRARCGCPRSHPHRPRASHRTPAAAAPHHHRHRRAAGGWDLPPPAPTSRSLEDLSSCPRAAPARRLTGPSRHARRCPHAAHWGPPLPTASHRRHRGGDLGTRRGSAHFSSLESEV
Assay: Positive allosteric modulation of GluN2D receptor (unknown origin) expressed in xenopus laevis oocytes assessed as increase in glycine-induced channel current by two electrode voltage clamp method
Type: cell-based
pEC50: −log10 of the molar value.
endpoint.name: pEC50

In [3]: df
Out[3]:
                                   molecule  observed_result
0  COc1ccc(OCC2c3cc(OC)c(OC)cc3CCN2C(=O)c2cccc(Cl)c2)cc1 (centres undefined)             5.55
1            CC(C)CCCc1ccc2cc(C(=O)O)ccc2c1             4.54
2  CCCc1nc2[nH]c(C)c(NS(=O)(=O)c3ccc(C4CCCCC4)cc3)c(=O)n2n1             5.17
3                  O=C(O)c1cc2cccc(O)c2cc1O             5.00

----------
Target: Glutamate receptor ionotropic, NMDA 2A (Homo sapiens, UniProt Q05586+Q12879)
Sequence (Q12879 whole entry, the tested form may be a part, one chain of several): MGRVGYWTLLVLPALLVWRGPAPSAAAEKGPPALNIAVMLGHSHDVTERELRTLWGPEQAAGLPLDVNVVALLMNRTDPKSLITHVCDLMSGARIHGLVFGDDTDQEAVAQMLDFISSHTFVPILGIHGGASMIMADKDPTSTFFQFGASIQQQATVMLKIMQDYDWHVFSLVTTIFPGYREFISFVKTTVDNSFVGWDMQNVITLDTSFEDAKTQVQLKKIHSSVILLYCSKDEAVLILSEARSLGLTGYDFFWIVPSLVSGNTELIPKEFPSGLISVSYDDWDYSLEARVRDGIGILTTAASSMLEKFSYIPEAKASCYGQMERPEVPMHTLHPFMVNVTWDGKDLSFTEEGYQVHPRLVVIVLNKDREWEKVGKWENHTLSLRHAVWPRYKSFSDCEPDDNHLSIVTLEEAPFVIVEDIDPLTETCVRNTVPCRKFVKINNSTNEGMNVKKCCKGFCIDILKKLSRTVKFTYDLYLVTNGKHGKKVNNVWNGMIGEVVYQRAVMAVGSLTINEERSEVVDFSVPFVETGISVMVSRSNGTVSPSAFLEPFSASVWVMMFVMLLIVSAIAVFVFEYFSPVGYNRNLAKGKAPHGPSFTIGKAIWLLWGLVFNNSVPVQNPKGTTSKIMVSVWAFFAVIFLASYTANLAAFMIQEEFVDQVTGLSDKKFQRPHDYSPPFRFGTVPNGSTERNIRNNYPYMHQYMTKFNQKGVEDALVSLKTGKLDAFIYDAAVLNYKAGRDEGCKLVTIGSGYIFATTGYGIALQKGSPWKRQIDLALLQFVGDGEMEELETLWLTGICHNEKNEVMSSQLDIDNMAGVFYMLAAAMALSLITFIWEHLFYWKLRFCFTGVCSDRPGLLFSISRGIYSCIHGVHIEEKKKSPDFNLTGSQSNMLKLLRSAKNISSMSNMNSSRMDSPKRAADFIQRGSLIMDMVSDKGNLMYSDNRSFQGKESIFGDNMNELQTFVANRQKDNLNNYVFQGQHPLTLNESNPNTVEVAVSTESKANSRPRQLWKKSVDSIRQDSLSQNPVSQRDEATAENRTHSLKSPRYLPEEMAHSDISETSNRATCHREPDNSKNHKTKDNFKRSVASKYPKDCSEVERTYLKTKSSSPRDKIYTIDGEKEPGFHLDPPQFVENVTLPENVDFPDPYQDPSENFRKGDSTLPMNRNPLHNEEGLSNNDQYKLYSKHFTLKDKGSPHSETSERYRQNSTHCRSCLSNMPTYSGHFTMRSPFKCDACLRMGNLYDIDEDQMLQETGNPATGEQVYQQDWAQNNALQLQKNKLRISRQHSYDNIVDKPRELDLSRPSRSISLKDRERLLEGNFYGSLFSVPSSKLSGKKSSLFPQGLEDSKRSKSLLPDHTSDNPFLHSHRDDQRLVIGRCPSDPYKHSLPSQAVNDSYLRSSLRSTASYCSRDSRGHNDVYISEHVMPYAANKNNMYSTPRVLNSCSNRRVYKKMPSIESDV
Assay: Positive allosteric modulation of EGFP-fused human GluN2A receptor expressed in HEK293T cells assessed as increase in glycine-induced channel current by two electrode voltage clamp method
Assay type: cell-based
endpoint.name: EC50 (µM)

In [3]: df
Out[3]:
                            molecule_smiles                             system_tested  endpoint_name  observed_result
0  CC(=O)[C@H]1CC[C@H]2[C@@H]3CC=C4C[C@@H](OS(=O)(=O)O)CC[C@]4(C)[C@H]3CC[C@]12C  Glutamate receptor ionotropic, NMDA 2A (Homo sapiens, UniProt Q05586+Q12879)           EC50               34

----------
Target: Ionotropic glutamate receptor NMDA 1/2C (Homo sapiens, UniProt Q05586+Q14957)
Sequence (Q14957 whole entry, other chains not shown): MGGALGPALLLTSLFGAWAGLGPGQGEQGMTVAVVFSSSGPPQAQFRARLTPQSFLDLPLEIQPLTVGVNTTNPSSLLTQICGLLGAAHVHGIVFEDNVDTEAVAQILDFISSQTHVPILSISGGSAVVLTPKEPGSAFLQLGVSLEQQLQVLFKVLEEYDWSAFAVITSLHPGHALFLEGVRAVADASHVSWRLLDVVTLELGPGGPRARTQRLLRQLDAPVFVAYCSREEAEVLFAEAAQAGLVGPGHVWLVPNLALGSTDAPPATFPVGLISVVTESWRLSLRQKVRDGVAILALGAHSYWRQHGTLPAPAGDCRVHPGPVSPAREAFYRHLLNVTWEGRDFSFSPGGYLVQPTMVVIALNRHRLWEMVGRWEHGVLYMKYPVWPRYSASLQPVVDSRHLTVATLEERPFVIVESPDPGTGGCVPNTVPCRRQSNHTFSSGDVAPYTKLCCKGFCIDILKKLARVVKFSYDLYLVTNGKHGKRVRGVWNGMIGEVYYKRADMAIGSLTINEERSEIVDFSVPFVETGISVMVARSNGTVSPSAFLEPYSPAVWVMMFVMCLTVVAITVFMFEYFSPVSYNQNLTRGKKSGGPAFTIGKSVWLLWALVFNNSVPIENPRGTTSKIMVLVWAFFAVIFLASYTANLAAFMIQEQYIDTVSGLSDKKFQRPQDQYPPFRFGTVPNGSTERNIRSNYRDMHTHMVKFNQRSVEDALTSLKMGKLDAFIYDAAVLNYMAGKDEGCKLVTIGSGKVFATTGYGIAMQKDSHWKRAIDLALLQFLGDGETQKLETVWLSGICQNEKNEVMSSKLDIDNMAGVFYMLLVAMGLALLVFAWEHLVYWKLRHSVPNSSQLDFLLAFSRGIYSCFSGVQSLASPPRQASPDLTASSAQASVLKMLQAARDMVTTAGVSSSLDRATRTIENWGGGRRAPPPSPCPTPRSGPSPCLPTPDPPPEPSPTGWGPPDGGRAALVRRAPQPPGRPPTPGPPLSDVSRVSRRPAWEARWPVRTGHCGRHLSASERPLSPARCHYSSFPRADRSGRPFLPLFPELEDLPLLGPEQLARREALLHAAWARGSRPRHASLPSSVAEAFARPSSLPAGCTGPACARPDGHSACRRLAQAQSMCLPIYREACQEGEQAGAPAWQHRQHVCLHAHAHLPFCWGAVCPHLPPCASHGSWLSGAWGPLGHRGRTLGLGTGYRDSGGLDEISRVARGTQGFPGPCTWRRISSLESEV
Test: Negative allosteric modulation of GluN1a/GluN2C receptor (unknown origin) expressed in xenopus laevis oocytes assessed as reduction in glutamate/glycine-induced channel current at -60 mV holding potential by two electrode voltage clamp method
Format: cell-based
endpoint.name: IC50 (µM)

>>> print(df.to_string())
              molecule_smiles  endpoint_name  observed_result
0  O=C(O)c1cc2cc(Br)ccc2oc1=O           IC50               68

----------
Target: Glutamate receptor ionotropic, NMDA 2A (Homo sapiens, UniProt Q05586+Q12879)
Assay: Negative allosteric modulation of GluN2A receptor (unknown origin) expressed in xenopus laevis oocytes assessed as reduction in glycine-induced channel current by two electrode voltage clamp method
Assay type: cell-based
Reported IC50 values for the following compounds.
endpoint.name: IC50 (µM)

                                   compound                             system_tested  endpoint_name  observed_result
0  C[C@@H](CN1CCC(Cc2ccccc2)CC1)[C@@H](O)c1ccc(O)cc1  Glutamate receptor ionotropic, NMDA 2A (Homo sapiens, UniProt Q05586+Q12879)           IC50               52
1  CC(=O)[C@H]1CC[C@H]2[C@@H]3CC[C@@H]4C[C@H](OS(=O)(=O)O)CC[C@]4(C)[C@H]3CC[C@]12C  Glutamate receptor ionotropic, NMDA 2A (Homo sapiens, UniProt Q05586+Q12879)           IC50               62
2                  O=C(O)c1cc2cccc(O)c2cc1O  Glutamate receptor ionotropic, NMDA 2A (Homo sapiens, UniProt Q05586+Q12879)           IC50              9.7
3  COc1ccc2nc(/C=C/c3cccc([N+](=O)[O-])c3)n(-c3ccc(C(=O)O)cc3)c(=O)c2c1  Glutamate receptor ionotropic, NMDA 2A (Homo sapiens, UniProt Q05586+Q12879)           IC50              182
4      O=C(O)c1cc2cc(-c3ccccc3)ccc2c(Br)c1O  Glutamate receptor ionotropic, NMDA 2A (Homo sapiens, UniProt Q05586+Q12879)           IC50              1.8
5  O=C(O)CCC(=O)N1N=C(c2c(-c3ccccc3)c3cc(Br)ccc3[nH]c2=O)CC1c1ccc(Br)cc1 (configuration not stated)  Glutamate receptor ionotropic, NMDA 2A (Homo sapiens, UniProt Q05586+Q12879)           IC50               78
6                O=C(O)c1cc2cc(Br)ccc2oc1=O  Glutamate receptor ionotropic, NMDA 2A (Homo sapiens, UniProt Q05586+Q12879)           IC50             18.6

----------
Target: Glutamate receptor ionotropic, NMDA 2D (Homo sapiens, UniProt O15399+Q05586)
Test: Negative allosteric modulation of human GluN2D receptor expressed in HEK cells assessed as reduction in glycine/glutamate-induced intracellular calcium flux preincubated for 5 mins followed by glycine/glutamate addition by Fluo-4-AM dye based FLIPR assay
Type: cell-based
pIC50: −log10 of the molar value.
endpoint.name: pIC50

>>> print(df.to_string())
                            molecule_smiles                             system_tested  observed_result
0  O=C(NNC(=O)c1ccc(CNS(=O)(=O)c2ccc(F)c(Cl)c2)cc1)c1ccccc1  Glutamate receptor ionotropic, NMDA 2D (Homo sapiens, UniProt O15399+Q05586)           < 4.52

----------
Reported IC50 values for the following compounds.
Target: Glutamate receptor ionotropic, NMDA 2D (Homo sapiens, UniProt O15399+Q05586)
Assay: Negative allosteric modulation of GluN2D receptor (unknown origin) expressed in xenopus laevis oocytes assessed as reduction in glycine-induced channel current by two electrode voltage clamp method
Format: cell-based
endpoint.name: IC50 (µM)

>>> df
                                   compound                             system_tested  endpoint_name  observed_result
0  CC(=O)[C@H]1CC[C@H]2[C@@H]3CC[C@@H]4C[C@H](OS(=O)(=O)O)CC[C@]4(C)[C@H]3CC[C@]12C  Glutamate receptor ionotropic, NMDA 2D (Homo sapiens, UniProt O15399+Q05586)           IC50               14
1  O=C(O)CCC(=O)N1N=C(c2c(-c3ccccc3)c3cc(Br)ccc3[nH]c2=O)CC1c1ccc(Br)cc1 (configuration not stated)  Glutamate receptor ionotropic, NMDA 2D (Homo sapiens, UniProt O15399+Q05586)           IC50              2.7
2  CC(=O)[C@H]1CC[C@H]2[C@@H]3CC=C4C[C@@H](OS(=O)(=O)O)CC[C@]4(C)[C@H]3CC[C@]12C  Glutamate receptor ionotropic, NMDA 2D (Homo sapiens, UniProt O15399+Q05586)           IC50              118
3  COc1ccc2nc(/C=C/c3cccc([N+](=O)[O-])c3)n(-c3ccc(C(=O)O)cc3)c(=O)c2c1  Glutamate receptor ionotropic, NMDA 2D (Homo sapiens, UniProt O15399+Q05586)           IC50              3.9
4             O=C(O)c1ccc2cc(I)c3ccccc3c2c1  Glutamate receptor ionotropic, NMDA 2D (Homo sapiens, UniProt O15399+Q05586)           IC50               50
5      O=C(O)c1cc2cc(-c3ccccc3)ccc2c(Br)c1O  Glutamate receptor ionotropic, NMDA 2D (Homo sapiens, UniProt O15399+Q05586)           IC50              2.4
6  CCN(CC)C(=S)Oc1ccc(C(=O)Nc2cccc3ccccc23)cc1  Glutamate receptor ionotropic, NMDA 2D (Homo sapiens, UniProt O15399+Q05586)           IC50              1.4

----------
Target: Glutamate receptor ionotropic, NMDA 2D (Homo sapiens, UniProt O15399+Q05586)
Experiment: Negative allosteric modulation of human GluN2D receptor expressed in xenopus laevis oocytes assessed as reduction in 3 uM glycine-induced channel current at -40 mV holding potential by two electrode voltage clamp method
Format: cell-based
endpoint.name: IC50 (µM)

In [3]: df
Out[3]:
                                   compound  endpoint_name  result_qualifier  observed_result
0  CC(C(O)c1ccc(O)cc1)N1CCC(Cc2ccccc2)CC1 (configuration not stated)           IC50                 =             75.9
1  O=C(NNC(=O)c1ccc(CNS(=O)(=O)c2ccc(F)c(Cl)c2)cc1)c1ccccc1           IC50                 >               10
